System: CHOZN 6 cells
Method summary: CellTiter-Glo cytotoxicity assay in CHOZN 6 cell line
Type: cell-based, Chinese hamster
Experimental context: Cricetulus griseus; CHOZN 6 cell line; 1 mM to 46 nM, 4PL fit; read-out: [GI50] CHOZN 6
Endpoint: log10(GI50) (log10 of the value in µM)
Values below are the log10 of the recorded GI50, with µM as the unit.

A selection of reference data follows.
Molecule	Quantitative result
O=C(O)c1nccc2c1[nH]c1ccccc12 [Compound 5, 9H-Pyrido[3,4-b]indole-1-carboxylic acid]	1.88
O=CCc1c[nH]c2ccccc12	1.74
O=C(O)c1cc2c([nH]c3ccccc32)c(C(=O)c2c[nH]c3ccccc23)n1	1.11

# map each molecule to its log10(GI50)
1. O=C(O)c1cc2c([nH]c3ccccc32)c(-c2ccccc2)n1
2. O=C(O)C1Cc2c([nH]c3ccccc23)C=N1 (stereo not drawn)
3. c1ccc2c(-c3nccc4c3[nH]c3ccccc34)c[nH]c2c1 [Compound 34, 1-(1H-Indol-3-yl)-9H-pyrido[3,4-b]indole]

Solution:
[1.95, 2.50, 1.09]

# map each molecule to its log10(GI50)
1. O=Cc1c[nH]c2ccccc12
2. O=C(O)c1cc2c([nH]c3ccccc32)c(-c2ccnc3ccccc23)n1

Solution:
1: 2.37; 2: 2.00

Data credit: paper PMC8228365
